Overview of recorded Currents for various compounds
target.or.system: GABA-A receptor; anion channel (Homo sapiens) (UniProt P14867+P47870+P18507+P28472+P48169+Q99928+Q9UN88+P34903+O00591+O14764+Q8N1C3+P18505+P78334+P47869+P31644+Q16445)
protocol.summary: Percentage of GABA-induced chloride currents with 10 e-5 M 4-biphenylacetic acid
Type: functional
condition.description: Bull Frog
measured.attribute: Currents

{"compound": "CCn1cc(C(=O)O)c(=O)c2cc(F)c(N3CCOCC3)cc21", "measured.attribute": "Currents", "recorded.result": "100%"}
{"compound": "CCn1cc(C(=O)O)c(=O)c2cc(F)c(N3CCNCC3)cc21 [NORFLOXACIN]", "measured.attribute": "Currents", "recorded.result": "0%"}
{"compound": "O=C(O)c1cn(C2CC2)c2c(F)c(N3CCNCC3)c(F)cc2c1=O", "measured.attribute": "Currents", "recorded.result": "11%"}
{"compound": "CCn1cc(C(=O)O)c(=O)c2cc(F)c(N3CCOC(CN)C3)c(F)c21 (stereo not given)", "measured.attribute": "Currents", "recorded.result": "89%"}
{"compound": "CC1COc2c(N3CCN(C)CC3)c(F)cc3c(=O)c(C(=O)O)cn1c23 (stereo not given) [OFLOXACIN]", "measured.attribute": "Currents", "recorded.result": "87%"}

---

Overview of recorded MIC for various compounds
Tested on: Staphylococcus aureus
protocol.summary: Minimum inhibition concentration against Staphylococcus aureus MRSA strain
Format: functional
measured.attribute: MIC (µg/mL)

{"cpd.smiles": "O=C(O)c1cn(C2CC2)c2c(F)c(N3CCNCC3)c(F)cc2c1=O", "recorded.result": 0.78}
{"cpd.smiles": "CCn1cc(C(=O)O)c(=O)c2cc(F)c(N3CCNCC3)cc21", "recorded.result": 12.5}
{"cpd.smiles": "O=C(O)c1cn(C2CC2)c2cc(N3CCNCC3)c(F)cc2c1=O", "recorded.result": 1.56}
{"cpd.smiles": "O=C(O)c1cn(C2CC2)c2c(F)c(N3CCOCC3)c(F)cc2c1=O", "recorded.result": 0.05}
{"cpd.smiles": "CCn1cc(C(=O)O)c(=O)c2cc(F)c(N3CCOCC3)cc21", "recorded.result": 0.39}
{"cpd.smiles": "O=C(O)c1cn(C2CC2)c2cc(N3CCOCC3)c(F)cc2c1=O", "recorded.result": 0.1}

---

target.or.system: GABA-A receptor; anion channel (Homo sapiens) (UniProt P14867+P47870+P18507+P28472+P48169+Q99928+Q9UN88+P34903+O00591+O14764+Q8N1C3+P18505+P78334+P47869+P31644+Q16445)
protocol.summary: Percentage of GABA-induced chloride currents with compound alone at 10 e-4 M
Format: functional
condition.description: Bull Frog
Overview of recorded Currents for various compounds
measured.attribute: Currents (%)

{"compound": "CN(C)CC1CN(c2c(F)cc3c(=O)c(C(=O)O)cn(C4CC4)c3c2F)CCO1 (configuration not stated)", "recorded.result": 91}
{"compound": "CCn1cc(C(=O)O)c(=O)c2cc(F)c(N3CCNCC3)cc21", "recorded.result": 38}
{"compound": "NCC1CN(c2c(F)cc3c(=O)c(C(=O)O)cn(C4CC4)c3c2F)CCO1 (configuration not stated)", "recorded.result": 90}
{"compound": "CC1COc2c(N3CCN(C)CC3)c(F)cc3c(=O)c(C(=O)O)cn1c23 (configuration not stated)", "recorded.result": 94}
{"compound": "O=C(O)c1cn(C2CC2)c2c(F)c(N3CCOCC3)c(F)cc2c1=O", "recorded.result": 91}
{"compound": "CCn1cc(C(=O)O)c(=O)c2cc(F)c(N3CCOC(CN)C3)c(F)c21 (configuration not stated)", "recorded.result": 94}
{"compound": "O=C(O)c1cn(C2CC2)c2cc(N3CCNCC3)c(F)cc2c1=O", "recorded.result": 64}
{"compound": "CCn1cc(C(=O)O)c(=O)c2cc(F)c(N3CCOCC3)cc21", "recorded.result": 100}
{"compound": "NCC1CN(c2cc3c(cc2F)c(=O)c(C(=O)O)cn3C2CC2)CCO1 (configuration not stated)", "recorded.result": 93}
{"compound": "O=C(O)c1cn(C2CC2)c2cc(N3CCOCC3)c(F)cc2c1=O", "recorded.result": 100}
{"compound": "O=C(O)c1cn(C2CC2)c2c(F)c(N3CCNCC3)c(F)cc2c1=O", "recorded.result": 81}
{"compound": "CNCC1CN(c2c(F)cc3c(=O)c(C(=O)O)cn(C4CC4)c3c2F)CCO1 (configuration not stated)", "recorded.result": 94}

---

target.or.system: GABA-A receptor; anion channel
protocol.summary: Inhibition of [3H]muscimol binding to GABA A receptor with compound alone at 10 e-4 M
Assay type: protein-complex assay
pIC50: −log10 of the molar value.
Overview of recorded pIC50 for various molecules

{"molecule": "O=C(O)c1cn(C2CC2)c2c(F)c(N3CCOCC3)c(F)cc2c1=O", "pIC50": "< 4.00"}
{"molecule": "NCC1CN(c2cc3c(cc2F)c(=O)c(C(=O)O)cn3C2CC2)CCO1 (configuration not stated)", "pIC50": "< 4.00"}
{"molecule": "CCn1cc(C(=O)O)c(=O)c2cc(F)c(N3CCOCC3)cc21", "pIC50": "< 4.00"}
{"molecule": "O=C(O)c1cn(C2CC2)c2c(F)c(N3CCNCC3)c(F)cc2c1=O", "pIC50": 4.19}
{"molecule": "CCn1cc(C(=O)O)c(=O)c2cc(F)c(N3CCOC(CN)C3)c(F)c21 (configuration not stated)", "pIC50": "< 4.00"}
{"molecule": "O=C(O)c1cn(C2CC2)c2cc(N3CCOCC3)c(F)cc2c1=O", "pIC50": "< 4.00"}
{"molecule": "CCn1cc(C(=O)O)c(=O)c2cc(F)c(N3CCNCC3)cc21", "pIC50": 4.89}
{"molecule": "NCC1CN(c2c(F)cc3c(=O)c(C(=O)O)cn(C4CC4)c3c2F)CCO1 (configuration not stated)", "pIC50": "< 4.00"}
{"molecule": "CC1COc2c(N3CCN(C)CC3)c(F)cc3c(=O)c(C(=O)O)cn1c23 (configuration not stated)", "pIC50": "< 4.00"}
{"molecule": "CNCC1CN(c2c(F)cc3c(=O)c(C(=O)O)cn(C4CC4)c3c2F)CCO1 (configuration not stated)", "pIC50": "< 4.00"}
{"molecule": "CN(C)CC1CN(c2c(F)cc3c(=O)c(C(=O)O)cn(C4CC4)c3c2F)CCO1 (configuration not stated)", "pIC50": "< 4.00"}
{"molecule": "O=C(O)c1cn(C2CC2)c2cc(N3CCNCC3)c(F)cc2c1=O", "pIC50": 4.00}

---

target.or.system: GABA-A receptor; anion channel
protocol.summary: Inhibition of [3H]muscimol binding to GABA A receptor with 10 e-4 M 4-biphenylacetic acid
Format: protein-complex assay
Overview of recorded IC50 for various molecules

{"cpd.smiles": "O=C(O)c1cn(C2CC2)c2cc(N3CCOCC3)c(F)cc2c1=O", "IC50": "> 100 µM"}
{"cpd.smiles": "CCn1cc(C(=O)O)c(=O)c2cc(F)c(N3CCOCC3)cc21", "IC50": "> 100 µM"}

---

protocol.summary: The compound was evaluated for the solubility in water at 25 degrees Centigrade
Type: ADME
Everything with solubility lower than 400 µg/mL is f; everything else, including exactly 400 µg/mL, is t.

{"compound": "CCn1cc(C(=O)O)c(=O)c2cc(F)c(N3CCOC(CN)C3)c(F)c21 (configuration not stated)", "assigned.category": "t"}
{"compound": "CCn1cc(C(=O)O)c(=O)c2cc(F)c(N3CCNCC3)cc21", "assigned.category": "f"}
{"compound": "CNCC1CN(c2c(F)cc3c(=O)c(C(=O)O)cn(C4CC4)c3c2F)CCO1 (configuration not stated)", "assigned.category": "t"}
{"compound": "NCC1CN(c2c(F)cc3c(=O)c(C(=O)O)cn(C4CC4)c3c2F)CCO1 (configuration not stated)", "assigned.category": "t"}
{"compound": "CN(C)CC1CN(c2c(F)cc3c(=O)c(C(=O)O)cn(C4CC4)c3c2F)CCO1 (configuration not stated)", "assigned.category": "t"}
{"compound": "O=C(O)c1cn(C2CC2)c2c(F)c(N3CCOCC3)c(F)cc2c1=O", "assigned.category": "f"}

---

Overview of recorded MIC for various compounds
Tested on: Enterococcus faecalis
protocol.summary: Minimum inhibition concentration against Enterococcus faecalis LS-101 strain
Type: functional
measured.attribute: MIC (µg/mL)

{"compound": "CC1COc2c(N3CCOC(CN)C3)c(F)cc3c(=O)c(C(=O)O)cn1c23 (stereo not given)", "unit.text": "µg/mL", "recorded.result": 3.13}
{"compound": "CCNCC1CN(c2c(F)cc3c(=O)c(C(=O)O)cn(C4CC4)c3c2F)CCO1 (stereo not given)", "unit.text": "µg/mL", "recorded.result": 0.2}
{"compound": "O=C(O)c1cn(C2CC2)c2cc(N3CCOCC3)c(F)cc2c1=O", "unit.text": "µg/mL", "recorded.result": 0.78}
{"compound": "CCn1cc(C(=O)O)c(=O)c2cc(F)c(N3CCNCC3)cc21", "unit.text": "µg/mL", "recorded.result": 0.78}
{"compound": "NCC1CN(c2c(F)cc3c(=O)c(C(=O)O)cn(C4CC4)c3c2F)CCCO1 (stereo not given)", "unit.text": "µg/mL", "recorded.result": 1.56}
{"compound": "CCn1cc(C(=O)O)c(=O)c2cc(F)c(N3CCOCC3)cc21", "unit.text": "µg/mL", "recorded.result": 3.13}
{"compound": "CN(Cc1ccccc1)CC1CN(c2c(F)cc3c(=O)c(C(=O)O)cn(C4CC4)c3c2F)CCO1 (stereo not given)", "unit.text": "µg/mL", "recorded.result": 1.56}
{"compound": "CNCC1CN(c2c(F)cc3c(=O)c(C(=O)O)cn(C4CC4)c3c2F)CCO1 (stereo not given)", "unit.text": "µg/mL", "recorded.result": 0.1}
{"compound": "O=C(O)c1cn(C2CC2)c2c(F)c(N3CCNCC3)c(F)cc2c1=O", "unit.text": "µg/mL", "recorded.result": 0.2}
{"compound": "NCC1CN(c2c(F)cc3c(=O)c(C(=O)O)cn(CCF)c3c2F)CCO1 (stereo not given)", "unit.text": "µg/mL", "recorded.result": 0.78}
{"compound": "NCC1CN(c2c(F)cc3c(=O)c(C(=O)O)cn(C4CC4)c3c2Cl)CCO1 (stereo not given)", "unit.text": "µg/mL", "recorded.result": 0.05}
{"compound": "O=C(O)c1cn(C2CC2)c2cc(N3CCNCC3)c(F)cc2c1=O", "unit.text": "µg/mL", "recorded.result": 0.39}
{"compound": "CCN(CC)CC1CN(c2c(F)cc3c(=O)c(C(=O)O)cn(C4CC4)c3c2F)CCO1 (stereo not given)", "unit.text": "µg/mL", "recorded.result": 0.39}
{"compound": "O=C(O)c1cn(C2CC2)c2c(F)c(N3CCOC(CN4CCCCC4)C3)c(F)cc2c1=O (stereo not given)", "unit.text": "µg/mL", "recorded.result": 25}
{"compound": "CC(=O)NCC1CN(c2c(F)cc3c(=O)c(C(=O)O)cn(C4CC4)c3c2F)CCO1 (stereo not given)", "unit.text": "µg/mL", "recorded.result": 0.78}
{"compound": "NCCC1CN(c2c(F)cc3c(=O)c(C(=O)O)cn(C4CC4)c3c2F)CCO1 (stereo not given)", "unit.text": "µg/mL", "recorded.result": 0.39}
{"compound": "CCn1cc(C(=O)O)c(=O)c2cc(F)c(N3CCOC(CN)C3)c(F)c21 (stereo not given)", "unit.text": "µg/mL", "recorded.result": 0.39}
{"compound": "NCC1CN(c2cc3c(cc2F)c(=O)c(C(=O)O)cn3C2CC2)CCO1 (stereo not given)", "unit.text": "µg/mL", "recorded.result": 0.2}
{"compound": "NCC1CN(c2c(F)cc3c(=O)c(C(=O)O)cn(C4CC4)c3c2F)CCO1 (stereo not given)", "unit.text": "µg/mL", "recorded.result": 0.05}
{"compound": "CN(C)CC1CN(c2c(F)cc3c(=O)c(C(=O)O)cn(C4CC4)c3c2F)CCO1 (stereo not given)", "unit.text": "µg/mL", "recorded.result": 0.39}

These data points were gathered from ChEMBL document CHEMBL1126682.
